Assay: Dissociation constant, pKa of the compound
Assay type: physicochemical
property: pKa
Reply briefly: the number, and no unit.

compound	pKa
CC(C)CC1(C)NC(=N)N(Cc2cccc(Cl)c2)C1=O (configuration not stated)	7.2

Okay, next one:
**Q:** Name the recorded pKa of the item CC1(C)C(=O)NC(=N)N1CCc1cccc(Cl)c1 in your answer.
**A:** 4.4

====

Target: Beta-secretase 1 (Homo sapiens, UniProt P56817)
Sequence (P56817 whole entry): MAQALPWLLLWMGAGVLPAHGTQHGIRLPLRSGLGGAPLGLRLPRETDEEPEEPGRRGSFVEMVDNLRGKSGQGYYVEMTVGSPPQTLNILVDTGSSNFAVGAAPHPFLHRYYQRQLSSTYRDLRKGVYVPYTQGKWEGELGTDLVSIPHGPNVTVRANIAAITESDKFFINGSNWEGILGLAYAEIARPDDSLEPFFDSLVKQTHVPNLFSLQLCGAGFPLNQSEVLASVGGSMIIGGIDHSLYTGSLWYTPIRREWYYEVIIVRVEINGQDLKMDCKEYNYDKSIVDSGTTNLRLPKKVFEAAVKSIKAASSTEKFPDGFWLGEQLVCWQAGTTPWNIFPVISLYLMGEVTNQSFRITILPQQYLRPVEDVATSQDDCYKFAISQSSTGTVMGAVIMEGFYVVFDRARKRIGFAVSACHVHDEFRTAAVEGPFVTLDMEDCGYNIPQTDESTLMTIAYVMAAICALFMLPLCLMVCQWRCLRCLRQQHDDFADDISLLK
Assay: Inhibition of BACE1 mediated hydrolysis of human amyloid precursor protein with Swedish and London mutation in HEK293 cells by ELISA
Format: cell-based
property: IC50 (nM)
Provide only the numeric value, understood in nM.

**Q:** Please supply the value of reported IC50 for the item CN1C(=N)N[C@](CCC2CCCCC2)(CC2CCCCC2)C1=O
**A:** 2600
